systemName: UniProtKB P53341
Sequence (P53341 whole entry): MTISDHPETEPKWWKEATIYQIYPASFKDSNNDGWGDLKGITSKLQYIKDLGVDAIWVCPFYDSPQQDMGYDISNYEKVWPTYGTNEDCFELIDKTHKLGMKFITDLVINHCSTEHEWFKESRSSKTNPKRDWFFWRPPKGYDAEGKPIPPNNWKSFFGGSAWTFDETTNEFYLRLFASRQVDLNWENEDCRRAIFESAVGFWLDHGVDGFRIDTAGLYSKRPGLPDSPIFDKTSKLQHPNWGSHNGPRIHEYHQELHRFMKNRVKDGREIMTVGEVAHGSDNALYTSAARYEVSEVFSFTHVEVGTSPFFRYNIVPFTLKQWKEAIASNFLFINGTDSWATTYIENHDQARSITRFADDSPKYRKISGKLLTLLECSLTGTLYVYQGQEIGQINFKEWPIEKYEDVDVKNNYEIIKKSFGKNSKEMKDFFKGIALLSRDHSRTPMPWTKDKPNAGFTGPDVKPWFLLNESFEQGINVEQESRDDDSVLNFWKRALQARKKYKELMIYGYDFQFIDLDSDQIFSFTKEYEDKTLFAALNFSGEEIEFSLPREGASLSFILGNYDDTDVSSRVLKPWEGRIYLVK
assaySummary: Glycosidase inhibition, spectrophotometric p-nitrophenyl glycoside assay
statedConditions: pH 7.2, read-out: Percentage inhibition (%) at 1 mM concentration of the inhibitor
assayMetric: inhibition at 1000 µM (%)

Example entries and their recorded answers appear below.
| givenSmiles | inhibition at 1000 µM (%) |
| --- | --- |
| OCC1=CC[C@H](O)[C@@H](O)[C@@H](O)[C@@H]1O | 3.3 |
| C[C@H]1CC[C@@H](O)[C@@H](O)[C@@H](O)[C@@H]1O | 19.5 |

a = OCC1=CC[C@@H](O)[C@@H](O)[C@@H](O)[C@@H]1O
b = O=C1CC=C(CO)[C@@H](O)[C@H](O)[C@@H]1O
Ask: Of the two listed items, a and b , which carries the larger inhibition at 1000 µM figure? Answer = label.
Reply: b
